target: Growth hormone secretagogue receptor type 1 (Homo sapiens, UniProt Q92847); assay: Antagonist activity at SNAP-tagged human GHSR expressed in HEK293 cells assessed as inhibition of ghrelin-induced IP1 accumulation at 10^-5M measured after 30 mins by IP1-d2 derivative based HTRF assay relative to control; type: functional, cell-based; details: filed as antagonist, dose 1.0 10^-5M
Sequence (Q92847 whole entry): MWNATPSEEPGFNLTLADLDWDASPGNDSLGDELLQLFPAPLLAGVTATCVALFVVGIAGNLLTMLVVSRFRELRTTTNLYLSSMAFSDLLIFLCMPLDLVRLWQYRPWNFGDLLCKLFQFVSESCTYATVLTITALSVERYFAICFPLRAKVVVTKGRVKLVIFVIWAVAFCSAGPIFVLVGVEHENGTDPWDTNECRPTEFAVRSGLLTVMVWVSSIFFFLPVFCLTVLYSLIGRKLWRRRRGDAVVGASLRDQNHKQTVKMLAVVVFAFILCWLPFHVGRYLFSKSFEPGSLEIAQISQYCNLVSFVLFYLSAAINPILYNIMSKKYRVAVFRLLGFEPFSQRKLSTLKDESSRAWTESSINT
Measurement label: %max (%)

• COc1ccc(Cn2c(CCc3ccccc3)nnc2[C@@H](Cc2c[nH]c3ccccc23)NC(=O)CNC(=O)C(C)(C)C#N)cc1 = 70
• COc1ccc(Cn2c(CCc3ccccc3)nnc2[C@@H](Cc2c[nH]c3ccccc23)NC(=O)CN)cc1 = 65
• COc1ccc(Cn2c(CCc3ccccc3)nnc2[C@@H](Cc2c[nH]c3ccccc23)NC(=O)CNC(=O)/C=C/c2ccc(F)cc2)cc1 = 74
• COc1ccc(Cn2c(CCc3ccccc3)nnc2[C@@H](Cc2c[nH]c3ccccc23)NC(=O)CNC(=O)C(C#N)Cc2ccccc2)cc1 (some centres undefined) = 72
